Test system: CD8F1 mice, subcutaneous mammary adenocarcinoma, T/C%
EXPERIMENT_NOTES: NCI In Vivo Anticancer Drug Screen. Data for tumor model Mammary Adenocarcinoma CD8F1 (subcutaneous) in CD8F1
TEST_CONDITIONS: endpoint: median tumor weight change; dose: 1000.0 mg/kg/injection; schedule: Q01DX001 (ip); vehicle: Klucel (hydroxypropylcellulose) (HPC); higher = larger tumour
Results filed as inconclusive are left out.
OBSERVATION_TYPE: T/C

Consider the molecule shown here: `COc1cc(C(=O)c2cocc2C(=O)c2ccc3c(c2)OCO3)cc(OC)c1OC` What is its recorded T/C?
40 % of control

What measured T/C goes with `O=C(O)C1(NO)CCCCC1` ?
76 % of control

// lookup T/C for OCC1OC(n2cnc3c(=S)nc[nH]c32)C(O)C1O (centres undefined)
52 % of control

Please look up its T/C: COc1cc(C)c(C2NC(=O)c3ccccc3N2)cc1C (centres undefined)
107 % of control

###

System: CD8F1 mice, subcutaneous mammary adenocarcinoma, T/C%
EXPERIMENT_NOTES: NCI In Vivo Anticancer Drug Screen. Data for tumor model Mammary Adenocarcinoma CD8F1 (subcutaneous) in CD8F1
TEST_CONDITIONS: endpoint: median tumor weight change; dose: 500.0 mg/kg/injection; schedule: Q01DX001 (ip); vehicle: saline; higher = larger tumour
Records with an inconclusive call do not appear.
Please provide measured T/C for the entries that follow.

For the compound OCCCN1CCCCC1CO (stereo not given) , what T/C is on record?
105 % of control

Which measured T/C value corresponds to Nc1ncn(C2OC(CO)C(O)C2O)c(=O)n1 (stereo not given) ?
106 % of control

Look up T/C for this compound: OCC1OC(n2cnc3c(=S)nc[nH]c32)C(O)C1O (stereo not given)
97 % of control

# input compound: CC(Cc1ccc(O)c(O)c1)C(C)Cc1ccc(O)c(O)c1 (stereo not given) ; wanted: its T/C
123 % of control

Query (compound): CC(C)C(N)C(=O)Nc1nncs1 (stereo not given) ; field requested: T/C
82 % of control

###

System: CD8F1 mice, subcutaneous mammary adenocarcinoma, T/C%
EXPERIMENT_NOTES: NCI In Vivo Anticancer Drug Screen. Data for tumor model Mammary Adenocarcinoma CD8F1 (subcutaneous) in CD8F1
TEST_CONDITIONS: endpoint: median tumor weight (est.); dose: 4.0 mg/kg/injection; schedule: Q07DX005 (ip); vehicle: saline; higher = larger tumour
Inconclusive results are not listed.
OBSERVATION_TYPE: T/C

Request the reported T/C associated with CCCCCCCC(=O)OCC(=O)[C@]1(O)Cc2c(O)c3c(c(O)c2[C@@H](OC2CC(N)C(O)C(C)O2)C1)C(=O)c1c(OC)cccc1C3=O (stereo partly specified)
66 % of control

# get_value(readout='T/C', item= OC(C1CO1)C(O)C1CO1 (stereo unspecified) )
13 % of control

Reported T/C, compound `C=C(C)[C@H]1Cc2c(ccc3c2O[C@@H]2COc4cc(OC)c(OC)cc4[C@@H]2C3=O)O1` : ____
95 % of control

Any idea what T/C was measured for COc1cccc2c1C(=O)c1c(O)c3c(c(O)c1C2=O)C[C@@](O)(/C(C)=N\NC(=O)CO)C[C@@H]3OC1CC(N)C(O)C(C)O1 (stereo partly specified) ?
104 % of control

Look at this compound and give its reported T/C. `O=C1c2ccccc2C(=O)c2c(NCCNCCO)ccc(NCCNCCO)c21`
92 % of control

Recorded T/C for `S=c1nc[nH]c2nc[nH]c12` , please?
73 % of control

###

Test system: CD8F1 mice, subcutaneous mammary adenocarcinoma, T/C%
EXPERIMENT_NOTES: NCI In Vivo Anticancer Drug Screen. Data for tumor model Mammary Adenocarcinoma CD8F1 (subcutaneous) in CD8F1
TEST_CONDITIONS: endpoint: median tumor weight change; dose: 250.0 mg/kg/injection; schedule: Q01DX001 (ip); vehicle: Klucel (hydroxypropylcellulose) (HPC); higher = larger tumour
Records with an inconclusive call do not appear.
OBSERVATION_TYPE: T/C

For the compound shown here, Cc1ccc(C2NC(=S)N3C(c4ccc(C)cc4)NC(=S)N23)cc1 (stereo not drawn) , give the reported T/C.
104 % of control

Give the measured T/C of `COc1cc(C(=O)c2cocc2C(=O)c2ccc3c(c2)OCO3)cc(OC)c1OC` .
73 % of control

Give its T/C value. Item: `O=Cc1ccc(C=O)c(Cl)c1`
99 % of control

// lookup T/C for `COc1cc(C(C)(C)C)cc(OC)c1C(O)(c1c(OC)cc(C(C)(C)C)cc1OC)c1c(OC)cc(C(C)(C)C)cc1OC`
62 % of control

Returns the measured T/C for the input compound. Input: `CC(=O)Nc1ccc(/C=N/NC(N)=S)cc1`
48 % of control

Value lookup for T/C; key = COc1ccc2ccccc2c1C1NC(=O)c2ccccc2N1 (stereo not drawn)
118 % of control

// query T/C value for entry `C[Si](C)(C)OSc1ccccc1[N+](=O)[O-]`
120 % of control

Please give the measured T/C for this compound: `COC(=O)Nc1cn2cc(C(=O)c3cccs3)ccc2n1`
69 % of control

Query (compound): `COC(=O)Nc1nc2ccc(SC)cc2c(=O)[nH]1` ; field requested: T/C
61 % of control

Could you share which T/C value was measured for `CCN(C)N=Nc1ccc(C(N)=O)cc1` ?
24 % of control

Item under review: COc1cc(C)c(C2NC(=O)c3ccccc3N2)cc1C (stereo not drawn) . Reported T/C?
76 % of control

// lookup T/C for `CCc1c(CC(=O)O)c2cc(C)ccc2n1Cc1ccc(Cl)cc1`
101 % of control

Entry `CCN(CC)c1ccc2cc(-c3nc4ccccc4n3C)c(=O)oc2c1` has what T/C?
80 % of control

###

Give T/C for every item shown.
System: CD8F1 mice, subcutaneous mammary adenocarcinoma, T/C%
EXPERIMENT_NOTES: NCI In Vivo Anticancer Drug Screen. Data for tumor model Mammary Adenocarcinoma CD8F1 (subcutaneous) in CD8F1
TEST_CONDITIONS: endpoint: median tumor weight (est.); dose: 50.0 mg/kg/injection; schedule: Q07DX005 (ip); vehicle: water; higher = larger tumour
Results filed as inconclusive are left out.

Please give the measured T/C for this molecule: CN1N=C(N)c2cn(C3OC(COP(=O)(O)O)C(O)C3O)c3ncnc1c23 (stereo not given)
25 % of control

What does the data say about its T/C? Entry: N#CC(OC1OC(COC2OC(CO)C(O)C(O)C2O)C(O)C(O)C1O)c1ccccc1 (stereo not given)
71 % of control

Using the record for `Cn1cnc([N+](=O)[O-])c1[Se]c1nc(N)nc2nc[nH]c12` , report its T/C.
215 % of control

Fill blank: measured T/C of the molecule CC(C)[C@](O)(C(=O)OCC1=CC[N+]2([O-])CC[C@@H](O)[C@@H]12)[C@H](C)O (stereo not given in full) is ____.
67 % of control

Entry `O=C(O)c1c2c(nc3ccccc13)Cc1ccccc1-2` : reported T/C = ?
59 % of control

###

Tested on: CD8F1 mice, subcutaneous mammary adenocarcinoma, T/C%
EXPERIMENT_NOTES: NCI In Vivo Anticancer Drug Screen. Data for tumor model Mammary Adenocarcinoma CD8F1 (subcutaneous) in CD8F1
TEST_CONDITIONS: endpoint: median tumor weight (est.); dose: 6.25 mg/kg/injection; schedule: Q07DX005 (ip); vehicle: saline; higher = larger tumour
Inconclusive results are not listed.
OBSERVATION_TYPE: T/C

Consider the compound `O=c1[nH]c2c(ccc3cnccc32)c2c1CCC2` and give its measured T/C.
119 % of control

Given the entry `CCOC(=O)NC1=C(N2CC2)C(=O)C(NC(=O)OCC)=C(N2CC2)C1=O` , report its measured T/C.
25 % of control

Using the record for `C1CC[N-]CC1.C1CC[N-]CC1.C1CC[N-]CC1.[Cl][Rh]([Cl])[Cl]` , report its T/C.
112 % of control

Could you tell me which T/C is on file for COC1N(C2CC(O)C(CO)O2)C(=O)NC(=O)C1(F)Br (configuration not stated) ?
54 % of control

Any idea what its T/C is? The compound is `OCCN1CCN(CC/C=C2/c3ccccc3Sc3ccc(C(F)(F)F)cc32)CC1`
107 % of control

// T/C lookup, key: `N=C(N)CCCCCCCCC(=N)N`
78 % of control

So what's the measured T/C for this one? `CN1CCN(CCCN2c3ccccc3Sc3ccc(C(F)(F)F)cc32)CC1`
183 % of control

###

Field: T/C. Provide a value for each of the compounds that follow.
System: CD8F1 mice, subcutaneous mammary adenocarcinoma, T/C%
EXPERIMENT_NOTES: NCI In Vivo Anticancer Drug Screen. Data for tumor model Mammary Adenocarcinoma CD8F1 (subcutaneous) in CD8F1
TEST_CONDITIONS: endpoint: median tumor weight (est.); dose: 50.0 mg/kg/injection; schedule: Q07DX005 (ip); vehicle: saline with Tween-80; higher = larger tumour
Inconclusive results are not listed.

What does the record list as T/C for `CCC[P+](c1ccccc1)(c1ccccc1)c1ccccc1` ?
30 % of control

Dear colleague, I am looking for the recorded T/C of the following compound: CCCCCCCC(=O)[O][Hg][CH2]C1COC([CH2][Hg][O]C(=O)CCCCCCC)CO1 (stereo unspecified)
100 % of control

Given the entry `CN(C)c1nc(N(C)C)nc(N(C)C)n1` , report its measured T/C.
73 % of control

State the recorded T/C for this entry: `O=C(NC1CCCCC1)OCc1c(COC(=O)NC2CCCCC2)c(-c2ccc(Cl)c(Cl)c2)n2c1CCC2`
72 % of control

# query: T/C of entry `COc1cc(O)c2c(O)c3c(c4c2c1[C@]1(C4)C(C)=CCCC1(C)C)[C@H](O)[C@@]1(O)CC(=O)C(C(N)=O)=C(O)[C@@]1(O)C3=O`
89 % of control

For `Nc1nc(-c2cccc3ccccc23)cc2ccccc12` , what is its reported T/C?
53 % of control

I would be grateful if you could share the reported T/C for `O=C(CO)c1ccc([N+](=O)[O-])cc1` .
118 % of control

// query T/C value for entry OCC1OC(n2cnc3c(=S)nc[nH]c32)C(O)C1O (stereo unspecified)
23 % of control

Can you look up the measured T/C of BrC1c2cccc3cccc(c23)C1Br (stereo unspecified) for me?
111 % of control

Field request: T/C | item: CC(=O)NC(Cc1ccc(F)cc1)C(=O)O (stereo unspecified)
117 % of control

What does the record list as T/C for `CCOC(=O)c1ccc(NC(=O)Nc2nccs2)cc1` ?
60 % of control
